experiment notes: NCI Yeast Anticancer Drug Screen. Data for the rad50 strain (AID 155);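 note: 0% = growth of vehicle-only cultures of the same strain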
study conditions: S. cerevisiae rad50 strain growth inhibition; at 50.0 µM
This is part of a sample that, as a whole, favours compounds with a hit. Of some 79,000 tested, about 15% had one in any assay. Active and inactive are the calls of the source. Cut-off read from the data, not from the text of the source: active = growth inhibition above about 70%; inactive = the rest.
# output must be one of active, inactive

These solved cases illustrate the format of a correct answer.
[
  {
    "compound": "Cc1ccc(C(=O)Nc2c(C)cccc2C)cc1",
    "class label": "inactive"
  },
  {
    "compound": "O=C(O)c1cc(=O)[nH]c(=S)[nH]1",
    "class label": "inactive"
  },
  {
    "compound": "CC(C)(NC(=O)c1cc(Cl)c2ccccc2c1O)C(=O)O",
    "class label": "inactive"
  },
  {
    "compound": "O=C1C2=C(c3ccccc31)C(c1ccc(Cl)cc1)N1C(=O)CCSC1=N2 (stereo not given)",
    "class label": "inactive"
  },
  {
    "compound": "Cc1n[nH]c(=O)n1-n1cccc1",
    "class label": "inactive"
  }
]

GET /call?item= "O=c1c(O)c(-c2cc(O)c(O)c(O)c2)oc2cc(O)ccc12" returns the recorded outcome of this test.
inactive

Likewise for "Cc1nn(-c2ccccc2)c2c1CC(=O)Nc1ccccc1-2" ?
inactive

Likewise for O=C1c2ccccc2C(C2N=Nc3ccccc32)c2ccccc21 (stereo not given) ?
inactive

Likewise for "Cc1cc2c(c3c1c(=O)c1ccccc1n3C)C=CC(C)(C)O2" ?
inactive

Likewise for "CCC(CC)C(=O)NC(=O)NC(N)=O" ?
inactive

Likewise for "c1ccc(C2=C([P+](c3ccccc3)(c3ccccc3)c3ccccc3)CCO2)cc1" ?
active

Likewise for "Cc1onc(-c2ccccc2)c1NC(=O)OCc1ccc(-c2cc(C(F)(F)F)cc(C(F)(F)F)c2)o1" ?
inactive

Likewise for CCN(CC)CC(O)CO (stereo not given) ?
inactive

Likewise for "CCOc1cc(CC[N+](C)(C)C)c2c(ccc3ccc(OC)c(OC)c32)c1OC" ?
inactive

Likewise for COC1CC(N=[N+]=[N-])C(OC(=O)c2ccccc2)C(CBr)O1 (stereo not given) ?
inactive

Likewise for "CC(=O)c1cccc(NC(=O)c2cccc(Cl)c2)c1" ?
inactive

Likewise for "CC1=CC(=C(c2cc(C)c(O)c(C(=O)O)c2)c2cc(C)c(O)c(C(=O)O)c2)C=C(C(=O)O)C1=O" ?
inactive

Likewise for "c1ccc2c(c1)Cc1c-2n[nH]c1-c1[nH]nc2c1Cc1ccccc1-2" ?
inactive

Likewise for COc1ccc(C2N(NC(=O)c3ccncc3)C(=O)CS2(=O)=O)cc1F (stereo not given) ?
inactive

Likewise for "CCc1cc(Cl)c(O)c(Cl)c1" ?
inactive

###

experiment notes: NCI Yeast Anticancer Drug Screen. Data for the bub3 strain (AID 167)
study conditions: S. cerevisiae bub3 mutant strain, at 50.0 µM, hits give high values
Compounds without any hit were thinned out: in the full panel of roughly 79,000, 15% have a hit.
Measured growth inhibition, listed per entry.
Field format: number, assumed %, no unit text.

[
  {
    "compound": "COc1cc2c3c(c1)SC(C)C(=O)N3CCN2 (centres undefined)",
    "growth inhibition [%]": -3.5
  },
  {
    "compound": "COc1ccc2nc3cc([N+](=O)[O-])ccc3c(Nc3ccc(S(=O)(=O)NC(C)=O)cc3)c2c1",
    "growth inhibition [%]": 64.5
  }
]

Looking for the measured growth inhibition of "NC(=O)c1ccc(Cl)cc1C(N)=O" , can you help?
-0.05

Likewise for "CCn1c2ccc(C(=O)CCCN(C)C)cc2c2cc(C(=O)CCCN(C)C)ccc21" ?
14.2
